The following compounds are listed with their measured IC50 values.
system: human lung cancer cell NCI-H460; test: MTT proliferation assay, NCI-H460; type: cell-based; settings: Homo sapiens, NCI-H460, 96 h, 4 days, read-out: IC50 (nM), inhibition of proliferation of NCI-H460
Attribute Measured: IC50 (nM)

Cc1ccc(C)n1-c1cc(N2CCOC[C@H]2C)nn2c(-c3ccn[nH]3)ncc12: 116
CC(C)n1nccc1-c1cc(N2CCOC[C@H]2C)nn2c(-c3ccn[nH]3)ncc12: 55.2
C[C@@H]1COCCN1c1cc(-c2ccnn2C)c2cnc(-c3ccc[nH]3)n2n1: 1150
Cc1nc(S(C)(=O)=O)ccc1-c1cc(N2CCOC[C@H]2C)nn2c(-c3ccn[nH]3)ncc12: 156
C[C@@H]1COCCN1c1cc(-c2ccnn2C)c2ncc(-c3ccn[nH]3)n2n1: 907
C[C@@H]1COCCN1c1cc(-c2ccccc2F)c2cnc(-c3ccn[nH]3)n2n1: 40.4
